- assay.system: Adenosine receptor A1 (Rattus norvegicus, UniProt P25099)
- Sequence (P25099 whole entry): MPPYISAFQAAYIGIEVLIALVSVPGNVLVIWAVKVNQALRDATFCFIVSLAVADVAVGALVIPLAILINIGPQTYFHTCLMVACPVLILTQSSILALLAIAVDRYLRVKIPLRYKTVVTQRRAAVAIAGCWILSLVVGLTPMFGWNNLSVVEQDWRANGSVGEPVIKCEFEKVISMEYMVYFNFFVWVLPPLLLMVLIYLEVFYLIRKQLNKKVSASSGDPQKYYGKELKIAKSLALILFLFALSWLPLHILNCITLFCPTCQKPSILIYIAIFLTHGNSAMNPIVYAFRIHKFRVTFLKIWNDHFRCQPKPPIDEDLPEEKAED
measured.quantity: pKi
Scale for pKi: -log10 of concentration given in mol/L; no unit attached.

Q: Please report the recorded pKi for Nc1ncnc2c1ncn2[C@H]1[C@H](O)[C@H](O)[C@@]2(CO)C[C@H]12 .
Ans: 5.77

----------
- assay.system: Sodium/nucleoside cotransporter 1 (Homo sapiens, UniProt O00337)
- Sequence (O00337 whole entry): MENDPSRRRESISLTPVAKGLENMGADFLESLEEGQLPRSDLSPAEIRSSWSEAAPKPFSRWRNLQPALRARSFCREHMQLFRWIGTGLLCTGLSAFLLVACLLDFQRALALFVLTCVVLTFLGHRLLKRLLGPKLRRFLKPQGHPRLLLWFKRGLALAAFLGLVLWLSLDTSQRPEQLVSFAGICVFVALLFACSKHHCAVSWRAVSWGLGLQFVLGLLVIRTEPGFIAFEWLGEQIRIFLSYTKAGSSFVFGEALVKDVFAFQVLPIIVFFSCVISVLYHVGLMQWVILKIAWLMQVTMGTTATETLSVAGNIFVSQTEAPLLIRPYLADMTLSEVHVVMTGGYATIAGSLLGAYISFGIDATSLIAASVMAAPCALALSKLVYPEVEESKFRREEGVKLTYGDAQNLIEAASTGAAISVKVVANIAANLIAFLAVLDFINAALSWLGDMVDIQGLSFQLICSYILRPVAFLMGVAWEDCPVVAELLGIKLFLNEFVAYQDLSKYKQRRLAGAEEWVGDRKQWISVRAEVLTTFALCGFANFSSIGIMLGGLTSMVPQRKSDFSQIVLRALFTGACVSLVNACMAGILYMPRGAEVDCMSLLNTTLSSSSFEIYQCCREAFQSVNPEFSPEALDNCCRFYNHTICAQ
- test.name: Inhibition of CNT1 (unknown origin)
measured.quantity: IC50

Q: Please report the recorded IC50 for O=[N+]([O-])c1ccc(CSc2ncnc3c2ncn3[C@@H]2O[C@H](CO)[C@@H](O)[C@H]2O)cc1 [NITROBENZYLMERCAPTOPURINE RIBONUCLEOSIDE] .
Ans: > 10 µM

----------
Target protein (sequence): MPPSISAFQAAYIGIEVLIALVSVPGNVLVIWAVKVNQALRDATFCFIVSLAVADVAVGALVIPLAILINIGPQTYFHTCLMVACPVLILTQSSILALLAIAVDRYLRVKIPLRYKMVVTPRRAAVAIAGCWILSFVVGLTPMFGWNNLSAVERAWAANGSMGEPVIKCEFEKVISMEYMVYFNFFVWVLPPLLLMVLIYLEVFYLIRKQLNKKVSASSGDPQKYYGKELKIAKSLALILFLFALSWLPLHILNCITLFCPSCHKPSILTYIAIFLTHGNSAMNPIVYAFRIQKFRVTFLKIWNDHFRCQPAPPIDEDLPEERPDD
measured.quantity: Ki

Q: Please report the recorded Ki for CNC(=O)[C@@]12C[C@@H]1[C@@H](n1cnc3c(NC)nc(C#Cc4ccc(F)s4)nc31)[C@H](O)[C@@H]2O .
Ans: > 10 µM

----------
- assay.system: P2Y purinoceptor 1 (Homo sapiens, UniProt P47900)
- Sequence (P47900 whole entry): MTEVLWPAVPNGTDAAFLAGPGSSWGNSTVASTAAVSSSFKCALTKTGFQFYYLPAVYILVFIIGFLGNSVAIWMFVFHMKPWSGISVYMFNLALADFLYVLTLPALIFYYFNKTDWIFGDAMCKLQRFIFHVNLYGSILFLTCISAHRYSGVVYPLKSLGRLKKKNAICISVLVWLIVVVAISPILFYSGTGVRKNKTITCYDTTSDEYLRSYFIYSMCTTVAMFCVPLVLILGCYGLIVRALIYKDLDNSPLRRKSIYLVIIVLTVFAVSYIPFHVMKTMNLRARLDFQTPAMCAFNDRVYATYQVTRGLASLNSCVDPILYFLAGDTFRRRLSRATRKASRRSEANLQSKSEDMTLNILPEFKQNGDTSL
- test.name: Agonist activity at human P2Y1R in human 1321N1 cells
Each record here notes measured EC50.
Note: unit nM is implicit; provide only the numeric part.

Observe how each entry below is paired with its result.
>  <smiles.text>
CNc1nc(I)nc2c1ncn2[C@H]1C[C@H](OP(=O)(O)O)[C@@]2(COP(=O)(O)O)C[C@H]12

>  <measured.quantity>
EC50

>  <unit.descriptor>
nM

>  <numeric.readout>
8.4

$$$$
>  <smiles.text>
Nc1ncnc2c1ncn2[C@H]1C[C@H](OP(=O)(O)O)[C@@H](COP(=O)(O)O)O1

>  <measured.quantity>
EC50

>  <unit.descriptor>
nM

>  <numeric.readout>
1280

$$$$
>  <smiles.text>
CSc1nc(N)c2ncn([C@H]3[C@H](O)[C@H](O)[C@@]4(COP(=O)(O)OP(=O)(O)O)C[C@H]34)c2n1

>  <measured.quantity>
EC50

>  <unit.descriptor>
nM

>  <numeric.readout>
0.4

$$$$

Q: Please report the recorded EC50 for Nc1ncnc2c1ncn2[C@H]1C[C@H](OP(=O)(O)O)[C@@]2(COP(=O)(O)O)C[C@H]12 .
Ans: 155

Q: For Nc1ncnc2c1ncn2[C@]12C[C@H](OP(=O)(O)O)[C@@H](COP(=O)(O)O)[C@@H]1C2 then?
Ans: 18900

----------
- assay.system: Adenosine receptor A3 (Homo sapiens, UniProt P0DMS8)
- Sequence (P0DMS8 whole entry): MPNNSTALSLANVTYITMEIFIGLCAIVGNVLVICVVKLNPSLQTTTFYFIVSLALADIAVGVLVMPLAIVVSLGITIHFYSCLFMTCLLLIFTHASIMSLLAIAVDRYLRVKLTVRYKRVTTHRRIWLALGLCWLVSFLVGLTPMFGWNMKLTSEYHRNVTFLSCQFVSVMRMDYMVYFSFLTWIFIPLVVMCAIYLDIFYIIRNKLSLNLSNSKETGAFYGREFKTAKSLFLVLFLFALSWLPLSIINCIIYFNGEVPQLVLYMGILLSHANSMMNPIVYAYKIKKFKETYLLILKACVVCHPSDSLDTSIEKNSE
Each record here notes measured Ki.

>  <smiles.text>
CCOC(=O)[C@]12C[C@@H]1[C@@H](n1ccc3c(NC)nc(C#Cc4ccc(Cl)s4)nc31)[C@H](O)[C@@H]2O

>  <assay.system>
Adenosine receptor A3 (Homo sapiens, UniProt P0DMS8)

>  <Ki>
448 nM

$$$$

Turning now to a further compound:
Q: Please report the recorded Ki for Nc1ncnc2c1ncn2[C@H]1[C@H](O)[C@H](O)[C@@]2(CO)C[C@H]12 .
Ans: 404 nM

----------
- assay.system: Kappa-type opioid receptor (Homo sapiens)
- Sequence (P41145 whole entry): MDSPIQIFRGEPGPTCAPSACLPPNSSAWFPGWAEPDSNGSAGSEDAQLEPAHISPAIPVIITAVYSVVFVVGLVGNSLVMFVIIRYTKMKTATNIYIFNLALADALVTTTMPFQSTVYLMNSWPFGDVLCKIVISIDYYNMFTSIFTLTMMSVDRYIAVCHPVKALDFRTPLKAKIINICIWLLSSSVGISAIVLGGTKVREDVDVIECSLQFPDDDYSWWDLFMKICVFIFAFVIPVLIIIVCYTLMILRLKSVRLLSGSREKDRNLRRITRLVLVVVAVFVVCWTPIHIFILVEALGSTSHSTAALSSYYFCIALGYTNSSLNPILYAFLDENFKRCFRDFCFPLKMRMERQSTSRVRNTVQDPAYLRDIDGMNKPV
measured.quantity: pKi
Scale for pKi: -log10 of concentration given in mol/L; no unit attached.

Q: Please report the recorded pKi for CCOC(=O)[C@]12C[C@@H]1[C@@H](n1ccc3c(NCCc4ccccc4)nc(C#Cc4ccccc4)nc31)[C@H](O)[C@@H]2O .
Ans: 6.68

----------
- assay.system: Sodium/nucleoside cotransporter 2 (Homo sapiens, UniProt O43868)
- Sequence (O43868 whole entry): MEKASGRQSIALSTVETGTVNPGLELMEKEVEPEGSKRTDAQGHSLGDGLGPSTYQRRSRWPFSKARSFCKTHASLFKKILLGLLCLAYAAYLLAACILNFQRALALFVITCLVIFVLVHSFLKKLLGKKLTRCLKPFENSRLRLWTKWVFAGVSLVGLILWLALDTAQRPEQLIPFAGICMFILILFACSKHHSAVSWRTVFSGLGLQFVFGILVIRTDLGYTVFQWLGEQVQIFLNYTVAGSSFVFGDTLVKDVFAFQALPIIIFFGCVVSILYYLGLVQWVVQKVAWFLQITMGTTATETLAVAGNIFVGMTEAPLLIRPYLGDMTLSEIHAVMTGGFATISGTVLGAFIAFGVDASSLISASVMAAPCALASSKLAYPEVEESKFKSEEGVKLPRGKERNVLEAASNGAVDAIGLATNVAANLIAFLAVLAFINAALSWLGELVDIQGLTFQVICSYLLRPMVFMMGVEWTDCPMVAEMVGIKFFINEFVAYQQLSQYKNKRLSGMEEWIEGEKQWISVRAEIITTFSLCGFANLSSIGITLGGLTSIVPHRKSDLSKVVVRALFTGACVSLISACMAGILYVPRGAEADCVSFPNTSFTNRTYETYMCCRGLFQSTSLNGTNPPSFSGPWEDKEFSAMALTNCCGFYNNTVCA
- test.name: Inhibition of human CNT2
measured.quantity: IC50

>  <smiles.text>
Nc1ncnc2c1ncn2[C@H]1C[C@H](O)[C@@]2(CO)C[C@H]12

>  <IC50>
10 µM

$$$$

Turning now to a further compound:
Q: Please report the recorded IC50 for Nc1ncnc2c1ncn2[C@]12C[C@H](O)[C@@H](CO)[C@@H]1C2 .
Ans: 145 µM

----------
- Test system: Human alphaherpesvirus 2
- test.name: Antiviral activity against HSV-2 by plaque reduction neutralization test
- Type: functional, organism-based
measured.quantity: IC50

Q: Please report the recorded IC50 for Cc1cn([C@H]2C[C@H](O)[C@]3(CO)C[C@H]23)c(=O)[nH]c1=O .
Ans: 250 nM

----------
- Test system: Human alphaherpesvirus 1
- test.name: Antiviral activity against HSV-1 by plaque reduction neutralization test
- Assay type: functional, organism-based
measured.quantity: IC50 (nM)
Note: unit nM is implicit; provide only the numeric part.

Q: Please report the recorded IC50 for Cc1cn([C@H]2C[C@H](O)[C@]3(CO)C[C@H]23)c(=O)[nH]c1=O [(NORTH)-METHANOCARBATHYMIDINE] .
Ans: 20

----------
- assay.system: Adenosine receptor A2b (Homo sapiens, UniProt P29275)
- Sequence (P29275 whole entry): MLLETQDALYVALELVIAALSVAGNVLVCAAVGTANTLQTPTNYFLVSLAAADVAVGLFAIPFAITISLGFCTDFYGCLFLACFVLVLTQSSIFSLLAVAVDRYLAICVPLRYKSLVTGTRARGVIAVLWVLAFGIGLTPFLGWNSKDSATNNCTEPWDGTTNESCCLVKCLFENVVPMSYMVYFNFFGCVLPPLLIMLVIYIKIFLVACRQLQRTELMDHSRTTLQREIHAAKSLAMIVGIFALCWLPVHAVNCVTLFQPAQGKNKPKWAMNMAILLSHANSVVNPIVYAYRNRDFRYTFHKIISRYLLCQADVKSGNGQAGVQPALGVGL
- test.name: Binding affinity to human adenosine A2B receptor assessed as inhibition constant
pKi: −log10 of the molar value.
measured.quantity: pKi

>  <compound>
Nc1ncnc2c1ncn2[C@H]1[C@H](O)[C@H](O)[C@@]2(CO)C[C@H]12

>  <pKi>
< 4.30

$$$$

Q: Please report the recorded pKi for Nc1ncnc2c1ncn2[C@@]12C[C@H]1[C@H](CO)[C@@H](O)[C@H]2O (racemic) .
Ans: < 4.30

----------
- assay.system: Equilibrative nucleoside transporter 1 (Homo sapiens, UniProt Q99808)
- test.name: Inhibition of human recombinant ENT1 assessed as inhibition of [3H] uridine transport
Each record here notes measured IC50.

>  <smiles.text>
Nc1ncnc2c1ncn2[C@H]1C[C@H](O)[C@@]2(CO)C[C@H]12

>  <assay.system>
Equilibrative nucleoside transporter 1 (Homo sapiens, UniProt Q99808)

>  <IC50>
> 1000 µM

$$$$

Turning now to a further molecule:
Q: Please report the recorded IC50 for Nc1ncnc2c1ncn2[C@]12C[C@H](O)[C@@H](CO)[C@@H]1C2 .
Ans: 626 µM

----------
- assay.system: Equilibrative nucleoside transporter 1 (Homo sapiens, UniProt Q99808)
- Sequence (Q99808 whole entry): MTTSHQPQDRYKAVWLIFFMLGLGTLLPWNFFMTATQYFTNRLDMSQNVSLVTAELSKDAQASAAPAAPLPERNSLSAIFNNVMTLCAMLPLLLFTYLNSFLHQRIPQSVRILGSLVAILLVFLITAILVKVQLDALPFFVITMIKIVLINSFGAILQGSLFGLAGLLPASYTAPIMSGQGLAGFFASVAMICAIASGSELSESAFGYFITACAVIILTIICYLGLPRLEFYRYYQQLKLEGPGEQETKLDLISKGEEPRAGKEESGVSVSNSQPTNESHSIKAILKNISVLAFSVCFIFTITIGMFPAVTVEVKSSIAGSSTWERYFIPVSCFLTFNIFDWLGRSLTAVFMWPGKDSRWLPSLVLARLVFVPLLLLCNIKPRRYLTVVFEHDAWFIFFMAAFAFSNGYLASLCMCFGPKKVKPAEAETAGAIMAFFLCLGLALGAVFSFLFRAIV
- test.name: Inhibition of ENT1 (unknown origin)
measured.quantity: IC50 (nM)
Note: unit nM is implicit; provide only the numeric part.

Q: Please report the recorded IC50 for O=[N+]([O-])c1ccc(CSc2ncnc3c2ncn3[C@H]2[C@H](O)[C@H](O)[C@@]3(CO)C[C@H]23)cc1 .
Ans: 30
